All figures here come from PubChem BioAssay AID1159580.

So I've got a bunch of compounds here, and I need their normalized growth values.
# experimental_protocol: chemical genetic growth profiling, strain panel (AID 1159580);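 also: tested at 20 µM; growth read once vehicle control cultures reached saturation at 30 °C; 1 = growth at the plate median or of vehicle wells; lower values mean less growth of the strain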
# particulars: S. cerevisiae deletion strains, growth OD, locus YML016C, strain PPZ1, active compounds read low
Screen size: about 5,500 compounds; about 2,000 (36%) were called active. Roughly 18% stayed inconclusive and do not appear here. This is one part of the list.
When you answer, write just the number.

Fill blank: measured normalized growth of the compound CC(C)NCC(O)c1ccc(O)c(O)c1 (centres undefined) is ____.
1.01

Name the reported normalized growth value associated with the compound NC(=NCCC[C@H](N)C(=O)O)NC(CCC(=O)O)C(=O)O (some centres undefined)
1

What value of normalized growth has been reported for the following compound? `c1ccc2c(c1)cc1ccc3cccc4ccc2c1c34`
1.02

Which normalized growth reading was recorded for the compound CCCC1O[C@@H]2CC3C4CCC5=CC(=O)C=CC5(C)C4[C@@H](O)CC3(C)[C@]2(C(=O)CO)O1 (some centres undefined) ?
1.01

Can you share its normalized growth? I mean this compound: `Nc1ccc(C(=O)NCC(=O)O)cc1`
1

Would you kindly share the measured normalized growth for C[C@H]1[C@H]2CCC3C4CC=C5C[C@@H](N(C)C)CC[C@]5(C)C4CC[C@@]32CN1C (some centres undefined) ?
0.993

If you can, please state the reported normalized growth value of `CC(=O)NCCCCCC(=O)O` .
1.01

Request the reported normalized growth associated with O=C(O)CCCCC1CCSS1 (centres undefined)
0.982

For `CC(C)N(C(=O)SCC(Cl)=C(Cl)Cl)C(C)C` , what is its reported normalized growth?
1.02

====

# experimental_protocol: chemical genetic growth profiling, strain panel (AID 1159580);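 also: tested at 20 µM; growth read once vehicle control cultures reached saturation at 30 °C; 1 = growth at the plate median or of vehicle wells; lower values mean less growth of the strain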
# particulars: S. cerevisiae deletion strains, growth OD, locus YGL086W, strain mad1, active compounds read low
The whole screen tested about 5,500 compounds, of which about 2,000 (36%) were called active. About 18% were inconclusive and are not listed. This is one part of the list.
readout_kind: normalized growth
Please respond with just the number, no unit label.

Form field: reported normalized growth of CSCCC(NC=O)C(=O)NC(C)C(=O)O (stereo not drawn)
0.996

Data request, read-out normalized growth, for CN1C(CC(=O)c2ccccc2)CCCC1CC(O)c1ccccc1 (stereo not drawn)
0.997

Need normalized growth of `O=C(O)CF` , thanks.
0.973

# input compound: `COc1cc2c(c(OC)c1OC)-c1ccc(OC)c(=O)cc1[C@@H](NC(C)=O)CC2` ; wanted: its normalized growth
1.02

Param item = COC(=O)C[C@H]1C(C)(C)C(=O)[C@@H]2CC3=C4CC(=O)O[C@@H](c5ccoc5)[C@]4(C)CCC3[C@@]1(C)C2=O (stereo partly drawn) ; retrieve measured normalized growth.
0.982

Item NCC(O)c1ccc(O)cc1 (stereo not drawn) has what recorded normalized growth?
0.993

Field request: normalized growth | item: CC(=O)O[C@@H]1CC2C(C)(C)C(=O)CC[C@]2(C)C2CC[C@]3(C)C(=CC(=O)O[C@H]3c3ccoc3)[C@@]21C (stereo partly drawn)
0.998

Entry CC1(C)C(O)CC(O)C2(C)C1CC(=O)C1(C)C2CCC2(C)C(C(=O)O)OC(=O)C3OC321 (stereo not drawn) : reported normalized growth = ?
1.01

Request the reported normalized growth associated with `c1ccc2c(c1)cc1ccc3cccc4ccc2c1c34`
0.993

Please report the recorded normalized growth for `COc1cc(OC)c2c(=O)c(-c3ccccc3)c(C)oc2c1OC` .
1

Tell me the measured normalized growth of `O=C(O)CCC(=O)C(=O)O` , please.
1

Quick one: normalized growth of `Nc1ccc(C(=O)NCC(=O)O)cc1` ?
1.01

# input compound: `C1CCN2C[C@@H]3C[C@H](CN4CCCC[C@@H]34)[C@H]2C1` ; wanted: its normalized growth
1.01

Bench note: what normalized growth did CO[C@H]1/C=C/O[C@@]2(C)Oc3c(C)c(O)c4c(O)c(c(/C=N/N5CCN(C)CC5)c(O)c4c3C2=O)NC(=O)/C(C)=C\C=C\C(C)[C@H](O)[C@@H](C)[C@@H](O)[C@@H](C)[C@@H](OC(C)=O)[C@@H]1C (stereo partly drawn) show?
1.02

// returns reported normalized growth for input `CC(=O)Nc1ccc(S(=O)(=O)Nc2ccc([N+](=O)[O-])cc2)cc1`
1

What value of normalized growth has been reported for the following compound? `CC(=O)Nc1cc([As](=O)(O)O)ccc1O`
0.996

Find the recorded normalized growth belonging to `COc1c2c(cc3c1OCO3)CCN(C)C2` and report it.
1.02

Entry `C[C@H](N)[C@H](O)c1ccc(O)c(O)c1` : reported normalized growth = ?
0.996

Please look up its normalized growth: `O=[N+]([O-])c1cc(O)c(O)c([N+](=O)[O-])c1`
1

Entry under review: CCCC(C)C1(CC)C(=O)NC(=O)NC1=O (stereo not drawn) . Reported normalized growth?
1.02

Query: normalized growth; subject: CC(C)NCC(O)c1ccc2ccccc2c1 (stereo not drawn)
1

Endpoint output: normalized growth of `CN/C(=C\[N+](=O)[O-])NCCSCc1ccc(CN(C)C)o1` . Value?
0.999

Which normalized growth value belongs to CN(C)CCOC(C)(c1ccccc1)c1ccccn1 (stereo not drawn) ?
1.01

Reported normalized growth, compound C[C@H]1[C@H]2CCC3C4CC=C5C[C@@H](N(C)C)CC[C@]5(C)C4CC[C@@]32CN1C (stereo partly drawn) : ____
1.02

What value of normalized growth has been reported for the following compound? O=c1[nH]c(=O)n(C2C[C@@H](O)[C@@H](CO)O2)cc1F (stereo partly drawn)
1.01

What does the record list as normalized growth for C=CC(C)(O)CC/C=C(\C)CCC=C(C)C (stereo not drawn) ?
0.981

Endpoint output: normalized growth of `CCCc1occc(=O)c1/C=C/O` . Value?
0.979

GET /values?readout=normalized growth&item= `OC[C@@H]1CCCN2CCCC[C@H]12`
1.01

Need normalized growth of CC(=O)O[C@H]1C[C@@H](OC(C)=O)C(C)(C)C2C[C@@H](OC(C)=O)[C@@]3(C)C4=CC(=O)O[C@@H](c5ccoc5)[C@]4(C)CCC3[C@]21C (stereo partly drawn) , thanks.
0.985

For the compound `Nc1ncn([C@@H]2O[C@H](CO)[C@@H](O)[C@H]2O)c(=O)n1` , what normalized growth is on record?
1

Entry C=CCC1(C(C)CCC)C(=O)N=C(S)NC1=O (stereo not drawn) has what normalized growth?
0.975

Fill blank: measured normalized growth of the compound `Cc1occc(=O)c1O` is ____.
0.982

Reported normalized growth, compound CC(C)(C)NCC(O)c1ccccc1Cl (stereo not drawn) : ____
0.978
